Listed binders paired with reported Kd
# Tgt: Plasmodium falciparum heat shock protein 70-1 (PfHsp70-1) (Plasmodium falciparum, UniProt Q8IB24 1-677)
# Assay method text: SPR
Assay metric: Kd (nM)

>  <Binder>
ALLLMYRR

>  <Reading>
61.8

$$$$
>  <Binder>
ANNNMYRR

>  <Reading>
4.02

$$$$
>  <Binder>
NRLLTG

>  <Reading>
97.4

$$$$
>  <Binder>
NRNNTG

>  <Reading>
10.2

$$$$
